assay: qHTS assay to identify small molecule antagonists of the estrogen receptor beta (ER-beta) signaling pathway - cell viability counter screen (AID 1259382); details: ER-beta-UAS-bla HEK293T viability, CellTiter-Glo luminescence, 16 h; series mostly up to 92.4 µM;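 note: HEK293T cells carrying ER-beta-UAS-bla reporter stimulated with estradiol; nearly all actives have a fitted effect of over 55% in size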
Records with an inconclusive call do not appear. The source made the active and inactive calls. Calls come from the whole dose curve; as a rule, active = well fitted cell-killing curve with a large enough effect in the repeat runs; inconclusive = weak or mixed curves; inactive = flat fitted curve, though single readings scatter.
Answer with one of the outcomes active, inactive

Solved cases below.
COMPOUND	CATEGORY
O=C1OC2(c3ccccc31)c1ccc(O)c(Br)c1Oc1c2ccc(O)c1Br	inactive
Cn1ccnc1	inactive

### Prompt Per the assay record, what outcome was assigned to O=C1OC(=O)c2cc(-c3ccc4c(c3)C(=O)OC4=O)ccc21 ?
### Response inactive

### Prompt Per the assay record, what outcome was assigned to O=C(Nc1ccccc1)c1cc(Cl)ccc1O ?
### Response inactive

### Prompt Per the assay record, what outcome was assigned to Cc1cccc2c1ccc1ccccc12 ?
### Response inactive

### Prompt Per the assay record, what outcome was assigned to ClC(c1ccccc1)(c1ccccc1)c1ccccc1 ?
### Response inactive

### Prompt Per the assay record, what outcome was assigned to Cc1ccc(N=Nc2c(O)ccc3ccccc23)c(C)c1 ?
### Response inactive

### Prompt Per the assay record, what outcome was assigned to C=C1CC[C@H]2O[C@]2(C)CC[C@@H]2[C@@H]1CC2(C)C ?
### Response inactive

### Prompt Per the assay record, what outcome was assigned to C=CC(=O)O[C@H]1C[C@@H]2CC[C@@]1(C)C2(C)C ?
### Response inactive

### Prompt Per the assay record, what outcome was assigned to CN1CCN(C)CC1 ?
### Response inactive

---

test: qHTS assay to identify small molecule agonists of the progesterone receptor (PR) signaling pathway - cell viability counter screen (AID 1346799); conditions: PR-UAS-bla HEK293T viability, CellTiter-Glo luminescence, 16 h; series mostly up to 92.4 µM; note: nearly all actives have a fitted effect of over 45% in size
Inconclusive results are not listed. Calls of active or inactive are those of the source. The call rests on the fitted dose curve.
Answer with one of the outcomes class 1 for active, class 0 for inactive

Solved cases below.
Nc1cc([N+](=O)[O-])ccc1Cl class 0
C/C(=N\[Si](C)(C)C)O[Si](C)(C)C class 0
Cc1ccc2n[nH]nc2c1 class 0

### Prompt Per the assay record, what outcome was assigned to O=c1cc[nH]cc1 ?
### Response class 0

### Prompt Per the assay record, what outcome was assigned to NCc1cccc(C2CCN(C(=O)c3ccc(C#Cc4ccccc4F)o3)CC2)c1 ?
### Response class 1

### Prompt Per the assay record, what outcome was assigned to CC(=O)[C@]1(O)Cc2c(O)c3c(c(O)c2[C@@H](O[C@H]2C[C@H](N)[C@H](O)[C@H](C)O2)C1)C(=O)c1ccccc1C3=O ?
### Response class 1

### Prompt Per the assay record, what outcome was assigned to CCOC(=O)OC(=O)OCC ?
### Response class 0

---

assay: qHTS assay to identify small molecule antagonists of the estrogen related receptor (ERR) signaling pathway from Tox21 library (AID 1224848); settings: ERR reporter cell line, luciferase antagonist mode, 18 h; series mostly up to 92.4 µM; note: nearly all actives have a fitted effect of over 50% in size
Records with an inconclusive call do not appear. Active and inactive are the calls of the source. Calls follow the shape of the dose curve; as a rule, active = well fitted inhibition curve with a large enough effect in the repeat runs; inconclusive = weak or mixed curves; inactive = no such curve, though single readings can be large or run the other way.
Answer with one of the outcomes class 1 (active), class 0 (inactive)

Solved cases below.
COMPOUND	CATEGORY
O=C1OC2(c3ccccc31)c1ccc(O)c(Br)c1Oc1c2ccc(O)c1Br	class 0
c1ccc(-c2ccc(C(c3ccccc3)n3ccnc3)cc2)cc1 (centres undefined)	class 1

### Prompt Per the assay record, what outcome was assigned to CCCCCCCCOC(=O)c1cc(O)c(O)c(O)c1 ?
### Response class 1

### Prompt Per the assay record, what outcome was assigned to Cn1ccnc1 ?
### Response class 0

### Prompt Per the assay record, what outcome was assigned to Nc1cc([N+](=O)[O-])ccc1Cl ?
### Response class 0

### Prompt Per the assay record, what outcome was assigned to O=C1C=CC(=O)N1c1cccc(N2C(=O)C=CC2=O)c1 ?
### Response class 1

### Prompt Per the assay record, what outcome was assigned to Nc1ccc2c(S(=O)(=O)O)cccc2c1S(=O)(=O)O ?
### Response class 0

### Prompt Per the assay record, what outcome was assigned to C=CCc1cc(S(=O)(=O)c2ccc(O)c(CC=C)c2)ccc1O ?
### Response class 1

### Prompt Per the assay record, what outcome was assigned to CCCCCCCCc1ccc(Nc2ccc(CCCCCCCC)cc2)cc1 ?
### Response class 0

### Prompt Per the assay record, what outcome was assigned to NC(=O)c1ccccc1Cl ?
### Response class 0

### Prompt Per the assay record, what outcome was assigned to Clc1ccc2c(Cl)ccnc2c1 ?
### Response class 0

### Prompt Per the assay record, what outcome was assigned to Cc1ccc2n[nH]nc2c1 ?
### Response class 0

### Prompt Per the assay record, what outcome was assigned to C=C1CC[C@H]2O[C@]2(C)CC[C@@H]2[C@@H]1CC2(C)C ?
### Response class 0

### Prompt Per the assay record, what outcome was assigned to CCCCCN=C(N)N/N=C/c1c[nH]c2ccc(OC)cc12 ?
### Response class 1

### Prompt Per the assay record, what outcome was assigned to COc1cc(/C=C/C(=O)CC(=O)/C=C/c2ccc(O)c(OC)c2)ccc1O ?
### Response class 1

### Prompt Per the assay record, what outcome was assigned to Oc1cccc2c(O)cccc12 ?
### Response class 0

### Prompt Per the assay record, what outcome was assigned to O=C(CCCCCCCCc1cccnc1)N1CCC(C=C(c2ccccc2)c2ccccc2)CC1 ?
### Response class 1
